Biological target: KRAS(G12C) (Homo sapiens, UniProt P01116, G12C)
Sequence (P01116 1-188 isoform P01116-2 G12C): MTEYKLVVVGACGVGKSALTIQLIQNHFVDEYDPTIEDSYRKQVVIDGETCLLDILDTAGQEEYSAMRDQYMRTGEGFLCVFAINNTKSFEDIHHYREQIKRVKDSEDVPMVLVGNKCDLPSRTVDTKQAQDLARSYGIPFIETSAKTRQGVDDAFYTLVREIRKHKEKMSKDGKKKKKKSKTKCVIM
Test: KRAS(G12C) Western blot protein degradation assay in LU65A cells
Type: cell-based
Design: LU65A human lung cancer cell line, which expresses KRAS(G12C); host or cells: LU65A
Conditions: 6 hr
What DC50 was measured for each of the following?

Req: Recorded DC50 of C=CC(=O)N1CCN(c2nc(OC[C@@H]3C[C@H](N4CCC(C(=O)N5CCN(Cc6ccc(-n7c(C(=O)NC)nnc7-c7cc(C(C)C)c(O)cc7O)cc6)CC5)CC4)CN3C)nc3c2CCN(c2cccc4cccc(Cl)c24)C3)C[C@@H]1CC#N [Compound 234] , please.
Resp: > 1000 nM

Req: Recorded DC50 of C=CC(=O)N1CCN(c2nc(OC[C@@H]3C[C@H](N4CCN(Cc5ccc(-n6c(O)nnc6-c6cc(C(C)C)c(O)cc6O)cc5)CC4)CN3C)nc3c2CCN(c2cccc4ccc(F)c(Cl)c24)C3)C[C@@H]1CC#N [Compound 277] , please.
Resp: > 1000 nM

Req: Recorded DC50 of C=CC(=O)N1CCN(c2nc(OCCN3CCN(C(=O)C4CCN(Cc5ccc(-n6c(C(=O)NCC(F)(F)F)nnc6-c6cc(C(C)C)c(O)cc6O)cc5)CC4)C[C@H]3CN(C)C)nc3c2CCN(c2cccc4cccc(Cl)c24)C3)C[C@@H]1CC#N [Compound 266] , please.
Resp: 100 to 1000 nM

Req: Recorded DC50 of C=CC(=O)N1CCN(c2nc(OC[C@@H]3CC[C@H](CN4CCN(Cc5ccc(-n6c(O)nnc6-c6cc(C(C)C)c(O)cc6O)cc5)CC4)N3C)nc3c2CCN(c2cccc4cccc(Cl)c24)C3)C[C@@H]1CC#N [Compound 326] , please.
Resp: 100 to 1000 nM

Req: Recorded DC50 of C=CC(=O)N1CCN(c2nc(OCCN3CCN(C(=O)C4CCN(Cc5ccc(-n6c(C(N)=O)nnc6-c6cc(C(C)C)c(O)cc6O)cc5)CC4)C[C@@H]3CN(C)C)nc3c2CCN(c2cccc4cccc(Cl)c24)C3)C[C@@H]1CC#N [Compound 260] , please.
Resp: > 1000 nM

Req: Recorded DC50 of C=CC(=O)N1CCN(c2nc(OCCN3CCN(C(=O)C4CCN(Cc5ccc(-n6c(O)nnc6-c6cc(C)c(O)cc6O)cc5)CC4)CC3)nc3c2CCN(c2cccc4cccc(Cl)c24)C3)C[C@@H]1CC#N [Compound 223] , please.
Resp: 100 to 1000 nM

Req: Recorded DC50 of C=CC(=O)N1CCN(c2nc(OC[C@@H]3CC[C@H](CN4CCN(Cc5ccc(-n6c(O)nnc6-c6cc(C(C)C)c(O)cc6O)cc5)CC4)N3C)nc3c2CCN(c2cccc4ccccc24)C3)C[C@@H]1CC#N [Compound 272] , please.
Resp: < 100 nM

Req: Recorded DC50 of C=CC(=O)N1CCN(c2nc(OC[C@@H]3CCN(CCC(=O)c4cc(C(C)C)c(O)cc4O)C3)nc3c2CCN(c2cccc4cccc(Cl)c24)C3)C[C@@H]1CC#N [Compound 186, trifluoroacetic acid] , please.
Resp: > 1000 nM

Req: Recorded DC50 of C=CC(=O)N1CCN(c2nc(OC[C@@H]3C[C@H](N4CCN(CC5CCN(Cc6ccc(-n7c(O)nnc7-c7cc(C(C)C)c(O)cc7O)cc6)CC5)CC4)CN3C)nc3c2CCN(c2cccc4cccc(Cl)c24)C3)C[C@@H]1CC#N [Compound 275] , please.
Resp: 100 to 1000 nM

---

Molecular target: KRAS(G12C) (Homo sapiens, UniProt P01116, G12C)
Assay: KRAS(G12C) Western blot protein degradation assay in LU65A cells
Format: cell-based
Parameters: LU65A human lung cancer cell line, which expresses KRAS(G12C); host or cells: LU65A
Conditions: 6 hr
What DC50 was measured for each of the following?

Req: Recorded DC50 of C=CC(=O)N1CCN(c2nc(OC[C@@H]3C[C@H](N4CCN(C(=O)C5CCN(Cc6ccc(-n7c(C(=O)NCC(F)(F)F)nnc7-c7cc(C(C)C)c(O)cc7O)cc6)CC5)CC4)CN3C)nc3c2CCN(c2cccc4cccc(Cl)c24)C3)C[C@@H]1CC#N , please.
Resp: 0.1 to 1 µM

Req: Recorded DC50 of C=CC(=O)N1CCN(c2nc(OCC3(CN4CCN(Cc5ccc(-n6c(O)nnc6-c6cc(C(C)C)c(O)cc6O)cc5)CC4)CC3)nc3c2CCN(c2cccc4cccc(Cl)c24)C3)C[C@@H]1CC#N , please.
Resp: 0.1 to 1 µM

Req: Recorded DC50 of C=CC(=O)N1CCN(c2nc(OC[C@@H]3C[C@H](N4CCC5(CCN(Cc6ccc(-n7c(O)nnc7-c7cc(C(C)C)c(O)cc7O)cc6)CC5)CC4)CN3C)nc3c2CCN(c2cccc4ccccc24)C3)C[C@@H]1CC#N , please.
Resp: 0.1 to 1 µM

Req: Recorded DC50 of C=CC(=O)N1CCN(c2nc(OCCN3CCC(C(=O)N4CCN(Cc5ccc(-n6c(C(=O)NCC(F)(F)F)nnc6-c6cc(C)c(O)cc6O)cc5)CC4)CC3)nc3c2CCN(c2cccc4cccc(Cl)c24)C3)C[C@@H]1CC#N [Compound 250] , please.
Resp: > 1 µM

Req: Recorded DC50 of C=CC(=O)N1CCN(c2nc(OC[C@@H]3C[C@H](N4CCN(C(=O)C5CCN(Cc6ccc(-n7c(C(=O)NCC)nnc7-c7cc(C(C)C)c(O)cc7O)cc6)CC5)CC4)CN3C)nc3c2CCN(c2cccc4cccc(Cl)c24)C3)C[C@@H]1CC#N , please.
Resp: < 0.1 µM

Req: Recorded DC50 of C=CC(=O)N1CCN(c2nc(OCC3(CN4CCN(Cc5ccc(-n6c(C(=O)NCC)nnc6-c6cc(C(C)C)c(O)cc6O)cc5)CC4)CC3)nc3c2CCN(c2cccc4cccc(Cl)c24)C3)C[C@@H]1CC#N , please.
Resp: 0.1 to 1 µM

Req: Recorded DC50 of C=CC(=O)N1CCN(c2nc(OC[C@@H]3CC[C@H](CN4CCN(C(=O)C5CCN(Cc6ccc(-n7c(C(=O)NCC)nnc7-c7cc(C(C)C)c(O)cc7O)cc6)CC5)CC4)N3C)nc3c2CCN(c2cccc4ccc(F)c(Cl)c24)C3)C[C@@H]1CC#N , please.
Resp: > 1 µM

---

Target: HSP90a protein (Homo sapiens)
Construct: purchased BPS Bioscience 50298
Experiment: HSP90α-binding fluorescent polarization (FP) assay, BODIPY-labeled RNK04010 probe
Conditions: FP competition with RNK04010 (BODIPY-labeled), 5 nM, 300 min at 25° C.
measuredEndpoint: IC50

Req: Recorded IC50 of C=CC(=O)N1CCN(c2nc(NCCC(=O)N3CCC(Cc4ccc(-n5c(C(=O)NCC(F)(F)F)nnc5-c5cc(C(C)C)c(O)cc5O)cc4)CC3)nc3c2CCN(c2cc(O)cc4ccccc24)C3)CC1 , please.
Resp: > 1000 nM

Req: Recorded IC50 of C=CC(=O)N1CCN(c2nc(NCCC(=O)NCc3ccc(CN4CCC(Cc5ccc(-n6c(C(=O)NC(C)C)nnc6-c6cc(C(C)C)c(O)cc6O)cc5)CC4)cc3)nc3c2CCN(c2cc(O)cc4ccccc24)C3)CC1 , please.
Resp: 100 to 1000 nM

Req: Recorded IC50 of CCC(=O)N1CCN(c2nc(NCCC(=O)NCc3ccc(-n4c(O)nnc4-c4cc(C(C)C)c(O)cc4O)cc3C(F)(F)F)nc3c2CCN(c2cc(O)cc4ccccc24)C3)CC1 , please.
Resp: 100 to 1000 nM

Req: Recorded IC50 of CC(C)c1cc(-c2nnc(C(=O)NCC(F)(F)F)n2-c2ccc(CC3CCN(Cc4ccc(CNC(=O)CCNc5nc6c(c(N7CCN(C(=O)C(C)(C)C)CC7)n5)CCN(c5cc(O)cc7ccccc57)C6)cc4)CC3)cc2)c(O)cc1O , please.
Resp: 100 to 1000 nM

---

Biological target: HSP90a protein (Homo sapiens, UniProt P07900)
Construct: purchased BPS Bioscience 50298
Test: HSP90α-binding fluorescent polarization (FP) assay, BODIPY-labeled RNK04010 probe
Settings: FP competition with RNK04010 (BODIPY-labeled), 5 nM, 300 min at 25° C.
measuredEndpoint: IC50

Req: Recorded IC50 of C=CC(=O)N1CCN(c2nc(NCCC(=O)NCC3CCN(C(=O)C4CCN(Cc5ccc(-n6c(O)nnc6-c6cc(CC)c(O)cc6O)cc5)CC4)CC3)nc3c2CCN(c2cccc4ccccc24)C3)C[C@H]1CC#N [Compound 103, trifluoroacetic acid] , please.
Resp: < 100 nM

Req: Recorded IC50 of CCC(=O)N1CCN(c2nc(NCCC(=O)N3CCC(CN4CCN(Cc5ccc(-n6c(C(=O)NC(CC)CC)nnc6-c6cc(CC)c(O)cc6O)cc5)CC4)CC3)nc3c2CCN(c2cc(O)cc4ccccc24)C3)CC1 [Compound 117, trifluoroacetic acid] , please.
Resp: 100 to 1000 nM

Req: Recorded IC50 of CCc1cc(-c2nnc(C(=O)NCC(F)(F)F)n2-c2ccc(CN(C)Cc3ccc(CC4CCN(C(=O)CCNc5nc6c(c(N7CCN(C(C)=O)CC7)n5)CCN(c5cc(O)cc7ccccc57)C6)CC4)cc3)cc2)c(O)cc1O [Compound 113, trifluoroacetic acid] , please.
Resp: 100 to 1000 nM

Req: Recorded IC50 of C=CC(=O)N1CCN(c2nc(NCCC(=O)N3CCN(Cc4ccc5c(c4)CN(C(=O)c4ccc(O)cc4O)C5)CC3)nc3c2CCN(c2cc(O)cc4ccccc24)C3)CC1 [Compound 86, trifluoroacetic acid] , please.
Resp: > 1000 nM
